- assay-explanation: E. coli growth modulation, two-sided OD650, primary screen, E. coli filamentation project, strain DRC41, 24 h (AID 1093);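 also: MC1000 strain lacking acrAB efflux and sulA so SOS filamentation is blocked; test concentration not given here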
- condition-context: OD650, 24 h, higher = more signal, called active from +8 up or from −8 down
result-type: z-score
Lab note: write the figure by itself, no unit.

>  <compound>
COc1ccccc1CN1C(=O)c2ccccc2[C@@H](C(=O)NCCN2CCOCC2)[C@@H]1c1ccc(CO)cc1

>  <observed-value>
0.339

$$$$

Indicate its recorded z-score; the compound in question is "COCCOC(=O)N1C(=O)[C@@]2(c3cc(C#CCNC(N)=O)ccc31)[C@H](c1ccc(OCCO)cc1)N1[C@H](c3ccccc3)[C@H](c3ccccc3)OC(=O)[C@H]1[C@@H]2C(=O)N1CCc2cc(OC)c(OC)cc2C1" 0.196

Indicate its recorded z-score; the compound in question is "CN(C)CCCNC(=O)[C@@]1(Cc2ccccc2I)c2ccccc2C(=O)N(Cc2ccccc2C(F)(F)F)[C@H]1c1ccc(CO)cc1" -0.971

Indicate its recorded z-score; the compound in question is CCN(CC)c1ccc(N2CC=CC34O[C@@H]5C=CCCOC(=O)C5[C@H]3C(=O)N(CCCCCO)[C@@H]4C2=O)cc1 (stereo partly specified) 2.85

Indicate its recorded z-score; the compound in question is C=CCC(OC(C)=O)[C@@H]1[C@@H](N(Cc2cc3ccccc3o2)C(=O)c2ccc(C)cc2)c2cc(OCCCO)ccc2N1C(=O)c1ccc2ccccc2c1 (stereo partly specified) 1.65

Indicate its recorded z-score; the compound in question is COc1cccc(C(=O)O[C@H]2CC[C@]3(C)C4=C(CCC3C2(C)C)[C@]2(C)CC[C@H]([C@H](C)CCCC(C)C)[C@@]2(C)CC4)c1 (stereo partly specified) 2.43

The values you see were collected from PubChem BioAssay.
